Data credit: PubChem BioAssay (NCATS)

# key: entry, value: Potency
# Procedure Details: Confirmatory screen NINDS Rhodamine qHTS for Zika virus inhibitors (AID 1347161); also: potency is read from the fitted curve at half-maximal effect; nearly all actives have a fitted effect of over 60% in size
# Condition Set: purified enzyme assay, Rhodamine110 substrate fluorescence, 15 min
Inconclusive results are not listed. Activity calls are given as the source filed them. Calls follow the shape of the dose curve; as a rule, active = well fitted inhibition curve with a large enough effect; inconclusive = small, poorly fitted or top-dose-only effect; inactive = no such curve, though single readings can be large or run the other way.
Property Name: Potency

- N#CC1C(=O)Nc2scc(-c3ccc(-c4ccccc4O)cc3)c2C1=O (configuration not stated): 2.48 µM (active)
- CC(=O)O[C@@H]1C[C@]2(C)[C@@]3(CCC4[C@@]5(C)CC[C@H](O[C@@H]6O[C@H](C(=O)O)[C@@H](O)[C@H](O[C@@H]7O[C@H](CO)[C@H](O)[C@H](O)[C@H]7O[C@@H]7O[C@@H](C)[C@H](O)[C@@H](O)[C@H]7O[C@@H]7OC[C@](O)(CO)[C@H]7O)[C@H]6O[C@@H]6O[C@H](CO)[C@H](O)[C@H](O)[C@H]6O)C(C)(C)C5CC[C@]42C)O[C@@H](O)[C@]12C3CC(C)(C)[C@@H](OC(=O)/C=C/c1ccc(O)c(O)c1)[C@@H]2OC(=O)/C=C/c1ccccc1 (some centres not stated): 1.66 µM (active)
- O=C(O)c1cnn(-c2nc3cc(OC(F)(F)F)c(Cl)cc3[nH]2)c1: 5.69 µM (active)
- CCOc1ccc(-c2ccc(Cn3c(CC(C)(C)C(=O)O)c(SC(C)(C)C)c4cc(OCc5ccc(C)cn5)ccc43)cc2)cn1: 2.21 µM (active)
- O=C(/C=C/c1c(C(=O)O)[nH]c2cc(Cl)cc(Cl)c12)Nc1ccccc1: 2.48 µM (active)
- CCOc1c2c(c(OCC)c3ccccc13)C(=O)N(c1ccc(CC(=O)NS(=O)(=O)c3ccccc3)cc1)C2: 4.41 µM (active)
- CC(C)c1cc2c(c(O)c1O[C@@H]1O[C@H](CO)[C@@H](O)[C@H](O)[C@H]1O)CC1(O)CCC(O)C(C)(C)C1CC2 (some centres not stated): 7.64 µM (active)
- CC(C)(O)C1CC=C(C(=O)OCC2OC(Oc3c(O)cc(C(=O)O)cc3O)C(O)C(O)C2O)CC1 (configuration not stated): 7.64 µM (active)
- CC1(C)CCC(C)(C)c2cc3c(cc21)Sc1ccccc1N=C3c1ccc(C(=O)O)cc1: 1.75 µM (active)
- O=C(O)c1ccc(CCCc2ccc(OCCc3ccc(F)cc3)cc2)o1: 2.78 µM (active)
- Nc1c(N=Nc2ccc(-c3ccc(N=Nc4cc(S(=O)(=O)O)c5ccccc5c4N)cc3)cc2)cc(S(=O)(=O)O)c2ccccc12: 2.24 µM (active)
- CC(C)C(=O)c1cn(CC(=O)COc2ccc(Oc3ccccc3)cc2)c2ccc(C(=O)O)cc12: 5.55 µM (active)

====

# System: 3D7
# Procedure Details: qHTS profiling for inhibitors of Plasmodium falciparum proliferation (AID 504749); also: nearly all actives have a fitted effect of over 60% in size
# Condition Set: P. falciparum in erythrocytes, SYBR Green DNA, 72 h; series mostly up to 28.7 µM
Records with an inconclusive call do not appear. The source made the active and inactive calls. Calls follow the shape of the dose curve; as a rule, active = well fitted inhibition curve with a large enough effect; inconclusive = small, poorly fitted or top-dose-only effect; inactive = flat fitted curve, though single readings scatter.
Outcome codes: TRUE for active, FALSE for inactive

• CCCCCCCC/C=C\CCCCCCCC(=O)O = FALSE
• COCC(=O)Nc1cc(Sc2ccccc2)ccc1N=C(NC(=O)OC)NC(=O)OC = FALSE
• CC(O)CO (centres undefined) = FALSE
• C[C@@H]1CCC2[C@@H](C)[C@@H](O)O[C@@H]3O[C@@]4(C)CC[C@@H]1[C@@]23OO4 (some centres undefined) = TRUE
• C#CCOc1ccc2c(C)cc(=O)oc2c1 = FALSE
• CO[C@H]1C[C@@H]2CC[C@@H](C)[C@@](O)(O2)C(=O)C(=O)N2CCCC[C@H]2C(=O)O[C@H]([C@H](C)C[C@@H]2CC[C@@H](OCCO)[C@H](OC)C2)CC(=O)[C@H](C)/C=C(\C)[C@@H](O)[C@@H](OC)C(=O)[C@H](C)C[C@H](C)/C=C/C=C/C=C/1C = TRUE
• COC(F)(F)C(Cl)Cl = FALSE
• COC(=O)[C@H]1[C@H]2C[C@@H]3c4[nH]c5ccccc5c4CCN3C[C@H]2C[C@@H](OC(=O)c2cc(OC)c(OC)c(OC)c2)[C@@H]1OC = TRUE
• CC(Cc1ccc(O)c(O)c1)C(C)Cc1ccc(O)c(O)c1 (centres undefined) = FALSE

====

# Target Entity: Cytochrome P450 2D6 (Homo sapiens) (UniProt P10635)
# Sequence (P10635 whole entry, looked up): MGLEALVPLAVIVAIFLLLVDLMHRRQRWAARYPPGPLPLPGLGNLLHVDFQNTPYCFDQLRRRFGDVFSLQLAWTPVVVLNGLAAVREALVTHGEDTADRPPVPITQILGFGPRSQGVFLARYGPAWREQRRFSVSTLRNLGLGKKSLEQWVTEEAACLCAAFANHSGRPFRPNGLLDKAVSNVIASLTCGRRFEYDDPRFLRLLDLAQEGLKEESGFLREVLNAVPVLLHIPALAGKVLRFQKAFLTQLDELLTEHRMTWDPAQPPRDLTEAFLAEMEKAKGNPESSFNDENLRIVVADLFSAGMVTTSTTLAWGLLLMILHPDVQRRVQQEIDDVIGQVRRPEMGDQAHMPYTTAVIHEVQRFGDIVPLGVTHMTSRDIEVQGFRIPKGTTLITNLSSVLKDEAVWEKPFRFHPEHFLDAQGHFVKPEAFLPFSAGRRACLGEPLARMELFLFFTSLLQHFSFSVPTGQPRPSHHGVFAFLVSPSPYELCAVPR
# Procedure Details: Cytochrome P450 family 2 subfamily D member 6 (CYP2D6) small molecule antagonists: luciferase biochemical (cell-free) qHTS assay (AID 1645840); also: nearly all actives have a fitted effect of over 55% in size
# Condition Set: P450-Glo CYP2D6 enzyme, luciferin luminescence, 1 h; series mostly up to 57.4 µM
Records with an inconclusive call do not appear. Activity calls are given as the source filed them. Calls follow the shape of the dose curve; as a rule, active = well fitted inhibition curve with a large enough effect in the repeat runs; inconclusive = weak or mixed curves; inactive = flat fitted curve, though single readings scatter.
Outcome codes: 1 for active, 0 for inactive

• COc1cc(NC(=O)c2ccccn2)ccc1Cl = 1
• c1ccc(Nc2nc3c(s2)CCCc2[nH]ncc2-3)nc1 = 1
• CCn1c2ccccc2c2cc(CNC)ccc21 = 1
• CCCCC(C)(O)C/C=C/[C@H]1[C@H](O)CC(=O)[C@@H]1CCCCCCC(=O)OC (stereo partly specified) = 1
• CN1CCC(c2c[nH]c3ccc(NC(=O)c4ccc(F)cc4)cc23)CC1 = 1
• COC(=O)[C@H](CC1C=NC=N1)NCC12CC3CC(CC(C3)C1)C2 (stereo partly specified) = 0
• COc1ccc(C)c2sc(NC(=O)c3ccncc3)nc12 = 1
• CCCCCCCC(=O)O = 0
• Nc1nc(N)c2nc(CNc3ccc(C(=O)N[C@@H](CCC(=O)O)C(=O)O)cc3)cnc2n1 = 0
• CO[C@@H](Cc1ccc(OCCc2nc(-c3ccccc3)oc2C)c2ccsc12)C(=O)O = 0
• Cc1cc(N2CCCCC2)nc2ccccc12 = 1

====

# Target Entity: Tyrosine-protein kinase Yes (Homo sapiens)
# Procedure Details: qHTS for small molecule inhibitors of Yes1 kinase: Primary Screen (AID 686947); also: nearly all actives have a fitted effect of over 60% in size
# Condition Set: Yes1 kinase biochemical qHTS inhibition; series mostly up to 76.9 µM
Results filed as inconclusive are left out. Calls of active or inactive are those of the source. The call rests on the fitted dose curve; in most records, active means well fitted inhibition curve with a large enough effect; inconclusive means small, poorly fitted or top-dose-only effect; inactive means no such curve, though single readings can be large or run the other way. *1 amine or outer side, *2 acyl side, *3 side chain or, on linkers, in order; H or OH if unused. Where a SMILES comes first, the peptide text is derived from it. Bridges are numbered along the chain shown (N, C = ends). Roman numbers before positions name the chains, in order. [ ]: non-standard residue; d: D form. ξ: configuration not given here. Actinocin(9to1) = Cc1c2oc3c(C)ccc(C(=O)[*:1])c3nc-2c(C(=O)[*:2])c(N)c1=O; ξNMeV = CNC(C(=O)O)C(C)C; ξV = CC(C)C(N)C(=O)O; Sar = CNCC(=O)O
Outcomes: Yes (active), No (inactive)

- CN(NC(=O)CC(=O)NN(C)C(=S)c1ccccc1)C(=S)c1ccccc1: No
- NC(=O)Nc1cc(-c2ccc(CN3CCOCC3)c(F)c2)sc1C(=O)N[C@H]1CCCNC1: Yes
- Cc1c2oc3c(C)ccc(C(=O)N[C@@H]4C(=O)NC(C(C)C)C(=O)N5CCC[C@H]5C(=O)N(C)CC(=O)N(C)C(C(C)C)C(=O)O[C@@H]4C)c3nc-2c(C(=O)N[C@@H]2C(=O)NC(C(C)C)C(=O)N3CCC[C@H]3C(=O)N(C)CC(=O)N(C)C(C(C)C)C(=O)O[C@@H]2C)c(N)c1=O (some centres undefined) (I: T[ξV]P[Sar][ξNMeV] / II: T[ξV]P[Sar][ξNMeV]; ester I:1-I:C, II:1-II:C; linker I:N-II:N via Actinocin(9to1)): No
- O=c1cc(C2=CC=CC3Sc4ccccc4SC23)oc(N2CCOCC2)c1 (centres undefined): No
- CCCCCCCCCCCCCCCCCCOP(=O)([O-])OC1CC[N+](C)(C)CC1: No
- CCC1(O)CC2CN(CCc3c([nH]c4ccccc34)[C@@](C(=O)OC)(c3cc4c(cc3OC)N(C=O)[C@H]3[C@](O)(C(=O)OC)[C@H](OC(C)=O)[C@]5(CC)C=CCN6CC[C@]43[C@@H]65)C2)C1 (some centres undefined): No
- CNC1CCN(C(Cc2cccc(-c3ccncc3)c2)C(=O)c2sc3c(F)ccc(F)c3c2Cl)CC1 (centres undefined): No
- CC[C@@H](C(=O)O)C1CC[C@H](C)C([C@@H](C)[C@H](O)[C@H](C)C(=O)[C@H](CC)C2O[C@]3(C=C[C@@H](O)[C@]4(CC[C@@](C)(C5CC[C@](O)(CC)[C@H](C)O5)O4)O3)[C@H](C)C[C@@H]2C)O1 (some centres undefined): No
- O=C(O)CC/C=C\CC[C@H]1[C@@H](N2CCCCC2)[C@@H](O)C[C@@H]1OCc1ccc(-c2ccccc2)cc1: No

====

The compounds listed here are annotated with their activity, negative = cell killing.
# Procedure Details: Drug repurposing screens with cells derived from glioblastoma tumor samples (AID 1345199); also: % is scaled to controls: 0 for no effect and ±100 for the full control effect; nearly all actives have a fitted effect of over 40% in size
# Condition Set: GBM patient neurospheres viability, ATP luminescence, 48 h; at 45.9 µM (top of the series); tumour line B
# Procedure: CD133+ cells were isolated from GBM patient biopsies and cultured as neurospheres. Neurospheres from four patients were used to screen the NCATS pharmaceutical collection (NPC) library of approved drugs and bioactive compounds. […] The neurospheres were incubated with drugs for 48 hours in 1536-well format, then assayed with an ATP content cell viability assay. […]
Results filed as inconclusive are left out.
Property Name: activity, negative = cell killing (%)

- O=C(O)CCC(=O)C(=O)O: -7.95
- Nc1ccn([C@H]2CS[C@@H](CO)O2)c(=O)n1: -4.08
- CCCCCCCC(=O)O: -7.1
- C[C@@H]1C[C@H]2[C@@H]3CCC4=CC(=O)C=C[C@]4(C)[C@@]3(F)[C@@H](O)C[C@]2(C)[C@@]1(O)C(=O)COP(=O)(O)O: -3.61
- CN1Cc2c(N)cccc2C(c2ccccc2)C1 (stereo unspecified): -10.9
- Nc1c(Br)cc(Br)cc1CNC1CCC(O)CC1 (stereo unspecified): -15.5
